Entry source: BindingDB's records for doi:10.1002/cbic.200500089

Entries with reported pKd on Fibroblast growth factor 2 (Homo sapiens)
Sequence (P09038 143-288 limits assumed): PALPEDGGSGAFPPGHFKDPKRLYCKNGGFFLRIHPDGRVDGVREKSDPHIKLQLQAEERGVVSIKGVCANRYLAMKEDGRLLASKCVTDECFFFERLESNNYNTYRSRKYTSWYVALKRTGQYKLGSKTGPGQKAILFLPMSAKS
pKd: −log10 of the molar value.
READOUT LABEL: pKd

[[record]]
record_smiles = "O=S(=O)(O)O[C@H]1[C@H](OS(=O)(=O)O)[C@@H](N(CCN([C@H]2C=C[C@@H](OS(=O)(=O)O)[C@@H](OS(=O)(=O)O)[C@@H]2OS(=O)(=O)O)[C@H]2C=C[C@@H](OS(=O)(=O)O)[C@@H](OS(=O)(=O)O)[C@@H]2OS(=O)(=O)O)[C@H]2C=C[C@@H](OS(=O)(=O)O)[C@@H](OS(=O)(=O)O)[C@@H]2OS(=O)(=O)O)C=C[C@H]1OS(=O)(=O)O"
reported_measurement = 5.96

[[record]]
record_smiles = "O=S(=O)(O)O[C@H]1[C@H](OS(=O)(=O)O)[C@@H](N(CCCCCCN([C@H]2C=C[C@@H](OS(=O)(=O)O)[C@@H](OS(=O)(=O)O)[C@@H]2OS(=O)(=O)O)[C@H]2C=C[C@@H](OS(=O)(=O)O)[C@@H](OS(=O)(=O)O)[C@@H]2OS(=O)(=O)O)[C@H]2C=C[C@@H](OS(=O)(=O)O)[C@@H](OS(=O)(=O)O)[C@@H]2OS(=O)(=O)O)C=C[C@H]1OS(=O)(=O)O"
reported_measurement = 6.87

[[record]]
record_smiles = "O=S(=O)(O)O[C@H]1[C@H](OS(=O)(=O)O)[C@@H](N(CCCCCCCCN([C@H]2C=C[C@@H](OS(=O)(=O)O)[C@@H](OS(=O)(=O)O)[C@@H]2OS(=O)(=O)O)[C@H]2C=C[C@@H](OS(=O)(=O)O)[C@@H](OS(=O)(=O)O)[C@@H]2OS(=O)(=O)O)[C@H]2C=C[C@@H](OS(=O)(=O)O)[C@@H](OS(=O)(=O)O)[C@@H]2OS(=O)(=O)O)C=C[C@H]1OS(=O)(=O)O"
reported_measurement = 6.97

[[record]]
record_smiles = "O=S(=O)(O)O[C@H]1[C@H](OS(=O)(=O)O)[C@@H](N(CCCCCCCCCN([C@H]2C=C[C@@H](OS(=O)(=O)O)[C@@H](OS(=O)(=O)O)[C@@H]2OS(=O)(=O)O)[C@H]2C=C[C@@H](OS(=O)(=O)O)[C@@H](OS(=O)(=O)O)[C@@H]2OS(=O)(=O)O)[C@H]2C=C[C@@H](OS(=O)(=O)O)[C@@H](OS(=O)(=O)O)[C@@H]2OS(=O)(=O)O)C=C[C@H]1OS(=O)(=O)O"
reported_measurement = 6.71

[[record]]
record_smiles = "O=S(=O)(O)O[C@H]1[C@H](OS(=O)(=O)O)[C@@H](N(CCCCCCCCCCN([C@H]2C=C[C@@H](OS(=O)(=O)O)[C@@H](OS(=O)(=O)O)[C@@H]2OS(=O)(=O)O)[C@H]2C=C[C@@H](OS(=O)(=O)O)[C@@H](OS(=O)(=O)O)[C@@H]2OS(=O)(=O)O)[C@H]2C=C[C@@H](OS(=O)(=O)O)[C@@H](OS(=O)(=O)O)[C@@H]2OS(=O)(=O)O)C=C[C@H]1OS(=O)(=O)O"
reported_measurement = 6.35

[[record]]
record_smiles = "O=S(=O)(O)O[C@H]1[C@H](OS(=O)(=O)O)[C@@H](N(CCCCCN([C@H]2C=C[C@@H](OS(=O)(=O)O)[C@@H](OS(=O)(=O)O)[C@@H]2OS(=O)(=O)O)[C@H]2C=C[C@@H](OS(=O)(=O)O)[C@@H](OS(=O)(=O)O)[C@@H]2OS(=O)(=O)O)[C@H]2C=C[C@@H](OS(=O)(=O)O)[C@@H](OS(=O)(=O)O)[C@@H]2OS(=O)(=O)O)C=C[C@H]1OS(=O)(=O)O"
reported_measurement = 6.83


###

Entries with reported pKd on Fibroblast growth factor 1 (Homo sapiens)
Sequence (P05230 whole entry): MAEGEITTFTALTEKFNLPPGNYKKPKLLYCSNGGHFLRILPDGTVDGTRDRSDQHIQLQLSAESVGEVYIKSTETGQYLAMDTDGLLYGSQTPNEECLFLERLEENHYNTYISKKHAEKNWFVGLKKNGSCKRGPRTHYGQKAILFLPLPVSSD
pKd: −log10 of the molar value.
READOUT LABEL: pKd

[[record]]
record_smiles = "O=S(=O)(O)O[C@H]1[C@H](OS(=O)(=O)O)[C@@H](N(CCCCCCCCN([C@H]2C=C[C@@H](OS(=O)(=O)O)[C@@H](OS(=O)(=O)O)[C@@H]2OS(=O)(=O)O)[C@H]2C=C[C@@H](OS(=O)(=O)O)[C@@H](OS(=O)(=O)O)[C@@H]2OS(=O)(=O)O)[C@H]2C=C[C@@H](OS(=O)(=O)O)[C@@H](OS(=O)(=O)O)[C@@H]2OS(=O)(=O)O)C=C[C@H]1OS(=O)(=O)O"
readout_label = "pKd"
reported_measurement = 7.39

[[record]]
record_smiles = "O=S(=O)(O)O[C@H]1[C@H](OS(=O)(=O)O)[C@@H](N(CCCCCN([C@H]2C=C[C@@H](OS(=O)(=O)O)[C@@H](OS(=O)(=O)O)[C@@H]2OS(=O)(=O)O)[C@H]2C=C[C@@H](OS(=O)(=O)O)[C@@H](OS(=O)(=O)O)[C@@H]2OS(=O)(=O)O)[C@H]2C=C[C@@H](OS(=O)(=O)O)[C@@H](OS(=O)(=O)O)[C@@H]2OS(=O)(=O)O)C=C[C@H]1OS(=O)(=O)O"
readout_label = "pKd"
reported_measurement = 7.53

[[record]]
record_smiles = "O=S(=O)(O)O[C@H]1[C@H](OS(=O)(=O)O)[C@@H](N(CCCCCCCCCCN([C@H]2C=C[C@@H](OS(=O)(=O)O)[C@@H](OS(=O)(=O)O)[C@@H]2OS(=O)(=O)O)[C@H]2C=C[C@@H](OS(=O)(=O)O)[C@@H](OS(=O)(=O)O)[C@@H]2OS(=O)(=O)O)[C@H]2C=C[C@@H](OS(=O)(=O)O)[C@@H](OS(=O)(=O)O)[C@@H]2OS(=O)(=O)O)C=C[C@H]1OS(=O)(=O)O"
readout_label = "pKd"
reported_measurement = 6.94

[[record]]
record_smiles = "O=S(=O)(O)O[C@H]1[C@H](OS(=O)(=O)O)[C@@H](N(CCCN([C@H]2C=C[C@@H](OS(=O)(=O)O)[C@@H](OS(=O)(=O)O)[C@@H]2OS(=O)(=O)O)[C@H]2C=C[C@@H](OS(=O)(=O)O)[C@@H](OS(=O)(=O)O)[C@@H]2OS(=O)(=O)O)[C@H]2C=C[C@@H](OS(=O)(=O)O)[C@@H](OS(=O)(=O)O)[C@@H]2OS(=O)(=O)O)C=C[C@H]1OS(=O)(=O)O"
readout_label = "pKd"
reported_measurement = 8.14

